# target or test system: T1, human BCMA (human, UniProt Q02223 1-54)
# T1 construct: also called huBCMA; hBCMA
# T1 sequence: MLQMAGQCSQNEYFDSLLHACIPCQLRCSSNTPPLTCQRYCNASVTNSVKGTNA
# run description: SPR, immobilised IgG, 37° C
Here the recorded T½ is given for each entry.
Unit min implied. Number only.

Study these solved cases before continuing.
binder	T½ [min]
L3.PY/L1.AH/H3.AQ (antibody, V domains shown, IgG in the assay) VH: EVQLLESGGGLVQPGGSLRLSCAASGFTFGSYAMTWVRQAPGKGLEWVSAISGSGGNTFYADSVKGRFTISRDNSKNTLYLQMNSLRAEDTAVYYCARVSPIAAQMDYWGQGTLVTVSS VL: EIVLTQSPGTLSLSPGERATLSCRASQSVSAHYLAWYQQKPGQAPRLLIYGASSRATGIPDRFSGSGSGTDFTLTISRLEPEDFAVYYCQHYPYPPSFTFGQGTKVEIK	5.85
L3.PY/H2.QR (antibody, V domains shown, IgG in the assay) VH: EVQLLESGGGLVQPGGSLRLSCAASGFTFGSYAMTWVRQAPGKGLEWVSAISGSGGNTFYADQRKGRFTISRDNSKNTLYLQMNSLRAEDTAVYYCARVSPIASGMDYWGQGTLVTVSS VL: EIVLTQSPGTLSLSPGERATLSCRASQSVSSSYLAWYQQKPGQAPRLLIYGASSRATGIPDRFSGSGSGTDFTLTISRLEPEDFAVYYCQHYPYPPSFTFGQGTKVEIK	9.75

Shifting focus to the binder that follows.
Query :: Query (binder): L3.PY/H2.DY (antibody, V domains shown, IgG in the assay) VH: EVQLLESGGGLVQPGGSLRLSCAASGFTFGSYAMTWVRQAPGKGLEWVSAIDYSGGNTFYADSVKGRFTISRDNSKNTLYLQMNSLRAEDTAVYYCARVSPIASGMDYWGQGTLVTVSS VL: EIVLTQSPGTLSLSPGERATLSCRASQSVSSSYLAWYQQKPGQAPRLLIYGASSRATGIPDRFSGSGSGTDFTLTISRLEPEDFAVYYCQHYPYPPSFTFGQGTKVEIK ; field requested: T½
Result :: 8.37
